Test Target: Human A2a Adenosine Receptor (Homo sapiens, UniProt P29274)
Sequence (P29274 whole entry): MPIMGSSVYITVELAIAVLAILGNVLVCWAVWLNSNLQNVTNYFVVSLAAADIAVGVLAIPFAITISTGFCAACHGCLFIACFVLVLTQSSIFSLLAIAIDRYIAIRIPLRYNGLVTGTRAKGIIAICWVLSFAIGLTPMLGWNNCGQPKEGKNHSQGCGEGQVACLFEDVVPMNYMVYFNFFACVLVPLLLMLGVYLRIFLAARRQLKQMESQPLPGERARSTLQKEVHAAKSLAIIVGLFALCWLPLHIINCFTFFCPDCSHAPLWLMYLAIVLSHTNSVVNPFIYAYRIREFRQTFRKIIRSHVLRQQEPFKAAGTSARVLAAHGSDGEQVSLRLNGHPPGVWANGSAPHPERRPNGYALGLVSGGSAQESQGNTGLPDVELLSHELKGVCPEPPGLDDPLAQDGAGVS
Measurement Name: pKi
Give bare numbers, as −log10 of the molar value.

Suppose we examine the compound Nc1nc2ccccc2c2nn(Cc3cccc(F)c3)c(=O)n12 ; what pKi value has been reported?
7.91
